# Tested on: SNB-75 CNS
# experimental.protocol: NCI tumour cell line growth inhibition, 48 h
measured.property: TGI

compound=O=C(CSc1nc2ccc(I)cc2c(=O)n1Cc1ccccc1)N/N=C/c1ccccc1 val="28.6 µM"
compound=O=c1[nH]c(=S)[nH]c2c1sc(=S)n2-c1ccccc1 val="> 100 µM"
compound=Cc1c2ccccc2c(C)c2c3c(ccc12)C(=O)C=CC3=O val="> 100 µM"
compound="COc1c(OC(C)=O)cc2c(OC(C)=O)c1CC(C)CC(OC)C(O)C(C)/C=C(\\C)C(OC(N)=O)C(OC)/C=C\\C=C(/C)C(=O)N2 (centres undefined)" val="> 100 µM"
compound=O=C(c1cc(=O)c2ccc(O)cc2o1)c1ccc(Cl)cc1Cl val="> 100 µM"
compound="CSC1=Nc2c(c(C)c(-c3ccccc3)n2COC(CO)CO)C2=NC(=O)C(C)N12 (centres undefined)" val="> 100 µM"
compound="COC1/C=C\\C=C(/C)C(=O)NC2=CC(=O)C=C(C2=O)C(OC)C(C)CC(OC)C(OC)C(C)/C=C(/C)C1OC(N)=O (centres undefined)" val="31.6 µM"
compound=N#Cc1ccc(Oc2nccc(-c3c(-c4ccc(F)cc4)ncn3C3CCNCC3)n2)cc1 val="> 25 µM"
compound=O=C(Nc1cccc(Cl)c1)Nc1cccc(Cl)c1 val="44.3 µM"

---

# System: A549 NSCLC
measured.property: GI50

molecule="CN(C)CC(C(=O)c1ccccc1)c1ccccc1 (stereo not drawn)" target_desc="A549 NSCLC" val="6.76 µM"
molecule=CCOP(=O)(CCP(=O)(OCC)OCC)OCC.C[CH2][Sn]([Cl])([Cl])[CH2]C target_desc="A549 NSCLC" val="> 100 µM"
molecule="C=CCN1C(=O)/C(=c2\\sc3n(c2=O)C2C(NN=3)N(CC)C(=O)N2CC)c2ccccc21 (stereo not drawn)" target_desc="A549 NSCLC" val="1.21 µM"

---

Hi! I'm sharing some GI50 results obtained with NCI-H522 lung.
measured.property: GI50

molecule=Cc1cccc(CN(C)c2ccc(CO)c(Cl)c2)c1 val="17.6 µM"
molecule="COc1cc2c(cc1OCCCCNC(=O)c1cc3ccccc3[nH]1)N=CC1CCCN1C2=O (stereo unspecified)" val="4.43 µM"
molecule=Cc1ccc(/C=C(\C#N)n2nnc3cc(Cl)c(Cl)cc32)cc1 val="2.72 µM"
molecule="O=C1NC(=NCC(CO)c2ccccc2)S/C1=C\\c1ccc2ncccc2c1 (stereo unspecified)" val="> 14.1 µM"
molecule=O=C(Nc1cccc(Cl)c1)Nc1cccc(Cl)c1 val="2.04 µM"
molecule=O=C(Oc1cccnc1)c1ccccc1Nc1ccnc(C(F)(F)F)c1 val="0.402 µM"
molecule=O=C1Cc2cc(CCn3ccnc3)c(Cl)cc2N1 val="4.74 µM"
molecule=COc1cc(/C=C/C(=O)C(=Cc2ccc(F)c(F)c2)C(=O)/C=C/c2ccc(O)c(OC)c2)ccc1O val="1.45 µM"
molecule=C=C1CC[C@@H]2C(C)(C)[C@@H](O)CC[C@@]2(C)[C@@H]1COc1ccc2ccc(=O)oc2c1 val="13.1 µM"
molecule=Cn1cc(-c2csc(-c3c[nH]c4ncccc34)n2)c2cc(Br)cnc21 val="4.86 µM"
molecule=COC(=O)[C@]12CC[C@@H](C)[C@H](C)[C@@H]1C1=CC[C@@H]3[C@@]4(C)C[C@@H](OC(=O)c5ccco5)[C@H](O)[C@@](C)(CO)[C@@H]4[C@H](O)C[C@@]3(C)[C@]1(C)CC2 val="1.82 µM"
